# System: Aspergillus fumigatus
# experiment: Antifungal activity against Aspergillus fumigatus NCIM 902 by dilution method
# Assay type: functional
experimental endpoint: MIC (µg/mL)
Expressed in µg/mL, but write only the number.

Query CCOC(=O)C1=C(C)N=c2s/c(=C\c3ccc(OC)cc3)c(=O)n2C1c1ccc(SC)cc1 (stereo not given) yields MIC of 6

Entry CCOC(=O)C1=C(C)N=c2s/c(=C\c3ccc(F)c(Oc4ccccc4)c3)c(=O)n2C1c1ccc(SC)cc1 (stereo not given) ; MIC = 12.5

For record CCOC(=O)C1=C(C)N=c2s/c(=C\c3ccc(Cl)cc3)c(=O)n2C1c1ccc(SC)cc1 (stereo not given) the listed MIC is 12.5

Lookup result for CCOC(=O)C1=C(C)N=c2s/c(=C\c3ccc(O)c(OC)c3)c(=O)n2C1c1ccc(SC)cc1 (stereo not given) ; measured MIC: 6

What the record says about CCOC(=O)C1=C(C)N=c2s/c(=C\c3ccc(O)cc3)c(=O)n2C1c1ccc(SC)cc1 (stereo not given) : MIC is 12.5

* * *

# Tested on: Talaromyces marneffei
# experiment: Antifungal activity against Penicillium marneffei at 10 ug/ml
# Format: functional
# measurement context: read-out: IZ
experimental endpoint: zone of inhibition at 10 µg/mL (mm)
Numeric answer only, unit mm assumed.

Lab entry: Talaromyces marneffei assay, compound CCOC(=O)C1=C(C)N=c2s/c(=C\c3ccc(-c4ccc([N+](=O)[O-])cc4)o3)c(=O)n2C1c1ccc(SC)cc1 (stereo not drawn) , zone of inhibition at 10 µg/mL = 11

For the compound CCOC(=O)C1=C(C)N=c2s/c(=C\c3ccc(-c4ccc(Cl)cc4)o3)c(=O)n2C1c1ccc(SC)cc1 (stereo not drawn) , the measured zone of inhibition at 10 µg/mL on Talaromyces marneffei was 11

Note to self: zone of inhibition at 10 µg/mL of CCOC(=O)C1=C(C)N=c2s/c(=C\c3ccc(Cl)cc3Cl)c(=O)n2C1c1ccc(SC)cc1 (stereo not drawn) with Talaromyces marneffei was 10

Entry CCOC(=O)C1=C(C)N=c2s/c(=C\c3ccc(-c4ccc(Br)cc4)o3)c(=O)n2C1c1ccc(SC)cc1 (stereo not drawn) under Talaromyces marneffei had zone of inhibition at 10 µg/mL of 20

Value (zone of inhibition at 10 µg/mL, Talaromyces marneffei) for record CCOC(=O)C1=C(C)N=c2s/c(=C\c3ccc4c(c3)OCO4)c(=O)n2C1c1ccc(SC)cc1 (stereo not drawn) = 10

The compound CCOC(=O)C1=C(C)N=c2s/c(=C\c3ccc(OC)cc3)c(=O)n2C1c1ccc(SC)cc1 (stereo not drawn) on Talaromyces marneffei: zone of inhibition at 10 µg/mL was 12

Entry CCOC(=O)C1=C(C)N=c2s/c(=C\c3ccc(O)cc3)c(=O)n2C1c1ccc(SC)cc1 (stereo not drawn) ; assay system Talaromyces marneffei; zone of inhibition at 10 µg/mL recorded at 12

So the reported zone of inhibition at 10 µg/mL for CCOC(=O)C1=C(C)N=c2s/c(=C\c3ccc(-c4ccc(Cl)cc4Cl)o3)c(=O)n2C1c1ccc(SC)cc1 (stereo not drawn) , on Talaromyces marneffei, turned out to be 18

* * *

Please provide measured MIC for the entries that follow.
# Test system: Staphylococcus aureus
# experiment: Antibacterial activity against Staphylococcus aureus ATCC 25923
# Assay type: functional
The figure you give is taken to be in µg/mL; do not add the unit.

get_value(item= CCOC(=O)C1=C(C)N=c2s/c(=C\c3ccc(Cl)cc3)c(=O)n2C1c1ccc(SC)cc1 (stereo not drawn) , readout=MIC) returns 25

Lab book: MIC of CCOC(=O)C1=C(C)N=c2s/c(=C\c3ccc(F)c(Oc4ccccc4)c3)c(=O)n2C1c1ccc(SC)cc1 (stereo not drawn) noted as 12.5

Lookup result for CCOC(=O)C1=C(C)N=c2s/c(=C\c3ccc(F)cc3)c(=O)n2C1c1ccc(SC)cc1 (stereo not drawn) ; measured MIC: 12.5

Record summary for CCOC(=O)C1=C(C)N=c2s/c(=C\c3ccc(-c4ccc(Br)cc4)o3)c(=O)n2C1c1ccc(SC)cc1 (stereo not drawn) : reported MIC = 12.5

Per the record, "O=C(O)c1cn(C2CC2)c2cc(N3CCNCC3)c(F)cc2c1=O" has MIC of 12.5

Recorded MIC (molecule CCOC(=O)C1=C(C)N=c2s/c(=C\c3ccc(O)c(OC)c3)c(=O)n2C1c1ccc(SC)cc1 (stereo not drawn) ): 12.5

The recorded MIC for entry CCOC(=O)C1=C(C)N=c2s/c(=C\c3ccc(-c4ccc([N+](=O)[O-])cc4)o3)c(=O)n2C1c1ccc(SC)cc1 (stereo not drawn) equals 25

In plain terms, CCOC(=O)C1=C(C)N=c2s/c(=C\c3ccc(OC)cc3)c(=O)n2C1c1ccc(SC)cc1 (stereo not drawn) has a documented MIC of 25

This collection of values is drawn from ChEMBL document CHEMBL1143775.
